- experiment: Blood and brain concentrations in satellite animals of the MEST study
- Type: in vivo, rat
- condition set: rat, blood, sc, 3 mg/kg, satellite rats; ENK6 veh + ENa13 3 mg/kg s.c.; n = 2; read-out: Blood concentration
endpoint: concentration at 30 min (ng/mL)
// note: answer is a bare numeric in ng/mL

**Query** Give the reported concentration at 30 min for this compound. CN1CC[C@]2(CC[C@H](c3ccc(OCc4ccccc4F)cc3)N2)C1=O.Cl [ENa13, hydrochloride]
**Result** 1820

---

- experiment: Blood and brain concentrations in satellite animals of the MEST study
- Format: in vivo, rat
- condition set: rat, blood, sc, 30 mg/kg, satellite rats; ENK6 30 mg/kg s.c. + ENa7 veh; n = 2; read-out: Blood concentration
endpoint: concentration at 15 min (ng/mL)
// note: answer is a bare numeric in ng/mL

**Query** Give the reported concentration at 15 min for this compound. COc1ccc(-n2nnnc2C(F)(F)F)cc1CN[C@H]1CCCN[C@H]1c1ccccc1.Cl.Cl [ENK6, dihydrochloride]
**Result** 1890

---

- experiment: Blood and brain concentrations in satellite animals of the MEST study
- Assay type: in vivo, rat
- condition set: rat, brain, po, 1 mg/kg, satellite rats; ENK6 veh + ENa7 1 mg/kg p.o. (Table 3); n = 1; read-out: Brain concentration
endpoint: concentration at 60 min (ng/g)
// note: answer is a bare numeric in ng/g

**Query** Give the reported concentration at 60 min for this compound. Nc1nnc(-c2cccc(Cl)c2Cl)c(N)n1 [ENa7, reference compound]
**Result** 517

---

- experiment: Blood and brain concentrations in satellite animals of the MEST study
- Assay type: in vivo, rat
- condition set: rat, brain, sc, 30 mg/kg, satellite rats; ENK6 30 mg/kg s.c. + ENa7 veh; n = 2; read-out: Brain concentration
- Protocol: Satellite animals (n=3/group) received the same drugs or combinations of drugs as the test groups, and were culled at the appropriate time after dosing. Blood and brain samples were taken for analysis of the drug concentrations in these compartments. All doses were calculated as base. ENa9 and ENa13 were dosed via the subcutaneous (s.c.) route at 1 ml/kg in a 2% v/v DMSO/saline vehicle 30 minutes prior to test. […]
endpoint: concentration at 15 min (ng/g)
// note: answer is a bare numeric in ng/g

**Query** Give the reported concentration at 15 min for this compound. COc1ccc(-n2nnnc2C(F)(F)F)cc1CN[C@H]1CCCN[C@H]1c1ccccc1.Cl.Cl [ENK6, dihydrochloride]
**Result** 4500

---

- experiment: Blood and brain concentrations in satellite animals of the MEST study
- Assay type: in vivo, rat
- condition set: rat, blood, po, 1 mg/kg, satellite rats; ENK6 veh + ENa7 1 mg/kg p.o. (Table 4); n = 1; read-out: Blood concentration
endpoint: concentration at 60 min
Provide a numeric answer, followed by its unit.

**Query** Give the reported concentration at 60 min for this compound. Nc1nnc(-c2cccc(Cl)c2Cl)c(N)n1 [ENa7, reference compound]
**Result** 352 ng/mL
